# EXPERIMENTAL SYSTEM: human MC4 receptor (Homo sapiens)
# Construct: expressed in transfected cells
# Sequence (P32245 whole entry): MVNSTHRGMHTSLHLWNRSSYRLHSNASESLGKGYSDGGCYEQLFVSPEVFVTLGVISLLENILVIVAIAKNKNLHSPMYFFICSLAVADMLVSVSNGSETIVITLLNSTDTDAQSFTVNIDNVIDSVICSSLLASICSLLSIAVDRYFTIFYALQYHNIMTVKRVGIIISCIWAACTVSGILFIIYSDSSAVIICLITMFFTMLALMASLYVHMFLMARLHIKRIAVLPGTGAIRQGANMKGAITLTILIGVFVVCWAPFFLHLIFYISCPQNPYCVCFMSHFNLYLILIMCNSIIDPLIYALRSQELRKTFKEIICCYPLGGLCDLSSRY
# ASSAY INFO: Assay (V) Melanocortin Receptor 4 (MC4) binding assay
# CONDITION CONTEXT: 125NDP-α-MSH binding, BHK cell membranes; read-out: Assay (V) MC4 [Ki]
*1 amine or outer side, *2 acyl side, *3 side chain or, on linkers, in order; H or OH if unused. Where a SMILES comes first, the peptide text is derived from it. Bridges are numbered along the chain shown (N, C = ends). [ ]: non-standard residue; d: D form. The star is where a group is joined. Palmitoyl(16-(5-tetrazolyl)) = O=C(CCCCCCCCCCCCCCCc1nnn[nH]1)*; X1 = O=C(O)CN(CC(=O)O)C[C@H](N[*:1])C(=O)[*:2]; C16 diacid = O=C(O)CCCCCCCCCCCCCCC(=O)*; Hyp = O=C(O)[C@@H]1C[C@@H](O)CN1; NTA = O=C(O)CN(CC(=O)O)CC(=O)*; Nle = CCCC[C@H](N)C(=O)O; Dap = NC[C@H](N)C(=O)O; AEEA = NCCOCCOCC(=O)O
MEASURE: Ki (nM)
Provide only the numeric value, understood in nM.

Look up Ki for this compound: CCCC[C@H](NC(=O)[C@H](CCCCNC(=O)CN(CC(=O)O)CC(=O)O)NC(=O)[C@H](CO)NC(=O)[C@H](CCC(N)=O)NC(=O)[C@H](CO)NC(=O)CNC(=O)COCCOCCNC(=O)CCCCCCCCCCCCCCCc1nnn[nH]1)C(=O)N[C@H]1CCC(=O)NCCCC[C@@H](C(N)=O)NC(=O)[C@H](Cc2c[nH]c3ccccc23)NC(=O)[C@H](CCCNC(=N)N)NC(=O)[C@@H](Cc2ccccc2)NC(=O)[C@@H]2C[C@@H](O)CN2C1=O [Example 15] ({Palmitoyl(16-(5-tetrazolyl))-AEEA}-GSQSK(NTA)[Nle]E[Hyp][dF]RWK-NH2; lactam 7-12)
3.15

Look up Ki for this compound: CCCC[C@H](NC(=O)[C@H](CN(CC(=O)O)CC(=O)O)NC(=O)[C@H](Cc1ccc(O)cc1)NC(=O)[C@H](CCC(N)=O)NC(=O)[C@H](CO)NC(=O)CNC(=O)COCCOCCNC(=O)CCCCCCCCCCCCCCCc1nnn[nH]1)C(=O)N[C@H]1CCC(=O)NCCCC[C@@H](C(N)=O)NC(=O)[C@H](Cc2c[nH]c3ccccc23)NC(=O)[C@H](CCCNC(=N)N)NC(=O)[C@@H](Cc2ccccc2)NC(=O)[C@@H]2C[C@@H](O)CN2C1=O [Example 23] ({Palmitoyl(16-(5-tetrazolyl))-AEEA}-GSQY[X1][Nle]E[Hyp][dF]RWK-NH2; lactam 7-12)
7.9

Look up Ki for this compound: CCCC[C@H](NC(=O)[C@H](CCCCNC(=O)CN(CC(=O)O)CC(=O)O)NC(=O)[C@H](CO)NC(=O)[C@H](CCC(N)=O)NC(=O)[C@H](CO)NC(=O)CNC(=O)COCCOCCNC(=O)CCCCCCCCCCCCCCC(=O)O)C(=O)N[C@H]1CCC(=O)NCCCC[C@@H](C(N)=O)NC(=O)[C@H](Cc2c[nH]c3ccccc23)NC(=O)[C@H](CCCNC(=N)N)NC(=O)[C@@H](Cc2ccccc2)NC(=O)[C@@H]2C[C@@H](O)CN2C1=O [Example 21] ({C16 diacid-AEEA}-GSQSK(NTA)[Nle]E[Hyp][dF]RWK-NH2; lactam 7-12)
14.7

Look up Ki for this compound: CCCC[C@H](NC(=O)[C@H](CNC(=O)CN(CC(=O)O)CC(=O)O)NC(=O)[C@H](Cc1c[nH]cn1)NC(=O)[C@H](CCC(N)=O)NC(=O)[C@H](CO)NC(=O)CNC(=O)COCCOCCNC(=O)CCCCCCCCCCCCCCC(=O)O)C(=O)N[C@H]1CCC(=O)NCCCC[C@@H](C(N)=O)NC(=O)[C@H](Cc2c[nH]c3ccccc23)NC(=O)[C@H](CCCNC(=N)N)NC(=O)[C@@H](Cc2ccccc2)NC(=O)[C@@H]2C[C@@H](O)CN2C1=O [Example 13] ({C16 diacid-AEEA}-GSQH[Dap](NTA)[Nle]E[Hyp][dF]RWK-NH2; lactam 7-12)
3.6

----------
# ASSAY INFO: Solubility data of compounds in water over the pH range
# Type: physicochemical
# CONDITION CONTEXT: pH 4.34
Where a SMILES comes first, the peptide text is derived from it. Bridges are numbered along the chain shown (N, C = ends). [ ]: non-standard residue; d: D form. The star is where a group is joined. C16 diacid = O=C(O)CCCCCCCCCCCCCCC(=O)*; Hyp = O=C(O)[C@@H]1C[C@@H](O)CN1; NTA = O=C(O)CN(CC(=O)O)CC(=O)*; Nle = CCCC[C@H](N)C(=O)O; AEEA = NCCOCCOCC(=O)O
MEASURE: solubility at 3 days (µM)
Provide only the numeric value, understood in µM.

Look up solubility at 3 days for this compound: CCCC[C@H](NC(=O)[C@H](CCCCNC(=O)CN(CC(=O)O)CC(=O)O)NC(=O)[C@H](CO)NC(=O)[C@H](CCC(N)=O)NC(=O)[C@H](CO)NC(=O)CNC(=O)COCCOCCNC(=O)CCCCCCCCCCCCCCC(=O)O)C(=O)N[C@H]1CCC(=O)NCCCC[C@@H](C(N)=O)NC(=O)[C@H](Cc2c[nH]c3ccccc23)NC(=O)[C@H](CCCNC(=N)N)NC(=O)[C@@H](Cc2ccccc2)NC(=O)[C@@H]2C[C@@H](O)CN2C1=O [Example 21] ({C16 diacid-AEEA}-GSQSK(NTA)[Nle]E[Hyp][dF]RWK-NH2; lactam 7-12)
32

----------
# ASSAY INFO: Solubility data of compounds in water over the pH range
# Type: physicochemical
# CONDITION CONTEXT: pH 7.03, pH 7.03; read-out: Conc (solubility in water)
Where a SMILES comes first, the peptide text is derived from it. Bridges are numbered along the chain shown (N, C = ends). [ ]: non-standard residue; d: D form. The star is where a group is joined. Palmitoyl(16-(5-tetrazolyl)) = O=C(CCCCCCCCCCCCCCCc1nnn[nH]1)*; Lys(CH2CO2H)2 = N[C@@H](CCCCN(CC(=O)O)CC(=O)O)C(=O)O; Hyp = O=C(O)[C@@H]1C[C@@H](O)CN1; Nle = CCCC[C@H](N)C(=O)O; AEEA = NCCOCCOCC(=O)O
MEASURE: solubility at 3 days (µM)
Provide only the numeric value, understood in µM.

Look up solubility at 3 days for this compound: CCCC[C@H](NC(=O)[C@H](CCCCN(CC(=O)O)CC(=O)O)NC(=O)[C@H](CO)NC(=O)[C@H](CCC(N)=O)NC(=O)[C@H](CO)NC(=O)CNC(=O)COCCOCCNC(=O)CCCCCCCCCCCCCCCc1nnn[nH]1)C(=O)N[C@H]1CCC(=O)NCCCC[C@@H](C(N)=O)NC(=O)[C@H](Cc2c[nH]c3ccccc23)NC(=O)[C@H](CCCNC(=N)N)NC(=O)[C@@H](Cc2ccccc2)NC(=O)[C@@H]2C[C@@H](O)CN2C1=O [Example 5] ({Palmitoyl(16-(5-tetrazolyl))-AEEA}-GSQS[Lys(CH2CO2H)2][Nle]E[Hyp][dF]RWK-NH2; lactam 7-12)
245

----------
# ASSAY INFO: Solubility data of compounds in water over the pH range
# Format: physicochemical
# CONDITION CONTEXT: pH 4.55, pH 4.55; read-out: Conc (solubility in water)
Where a SMILES comes first, the peptide text is derived from it. Bridges are numbered along the chain shown (N, C = ends). [ ]: non-standard residue; d: D form. The star is where a group is joined. Palmitoyl(16-(5-tetrazolyl)) = O=C(CCCCCCCCCCCCCCCc1nnn[nH]1)*; Lys(CH2CO2H)2 = N[C@@H](CCCCN(CC(=O)O)CC(=O)O)C(=O)O; Hyp = O=C(O)[C@@H]1C[C@@H](O)CN1; Nle = CCCC[C@H](N)C(=O)O; AEEA = NCCOCCOCC(=O)O
MEASURE: solubility at 3 days (µM)
Provide only the numeric value, understood in µM.

Look up solubility at 3 days for this compound: CCCC[C@H](NC(=O)[C@H](CCCCN(CC(=O)O)CC(=O)O)NC(=O)[C@H](CO)NC(=O)[C@H](CCC(N)=O)NC(=O)[C@H](CO)NC(=O)CNC(=O)COCCOCCNC(=O)CCCCCCCCCCCCCCCc1nnn[nH]1)C(=O)N[C@H]1CCC(=O)NCCCC[C@@H](C(N)=O)NC(=O)[C@H](Cc2c[nH]c3ccccc23)NC(=O)[C@H](CCCNC(=N)N)NC(=O)[C@@H](Cc2ccccc2)NC(=O)[C@@H]2C[C@@H](O)CN2C1=O [Example 5] ({Palmitoyl(16-(5-tetrazolyl))-AEEA}-GSQS[Lys(CH2CO2H)2][Nle]E[Hyp][dF]RWK-NH2; lactam 7-12)
21
